- Test system: A23187-Induced LTB4 Production in Human Promyelocytic Leukemia HL-60 Cells
- Method Description: A23187-Induced LTB4 Production in Human Promyelocytic Leukemia HL-60 Cells (HL-60 Cell Assay)
- Type: cell-based
- Conditions Used: Homo sapiens; A23187-stimulated HL-60 cells, LTB4
pIC50: −log10 of the molar value. Counter-ions that a name gives are not always drawn.
Observation Type: pIC50

[1] CCCCCCCC/C=C/C=C/C=C/C1OC1c1cccc(C(=O)O)c1 (stereo not drawn) [Example 7,Li^+ salt]
[2] CCCCCCCCCC/C=C/C=C/C1OC1c1cccc(C(=O)O)c1 (stereo not drawn) [Example 4,Li^+ salt]
[3] CCCCCCCCCCCC/C=C/C1OC1c1cccc(C(=O)O)c1 (stereo not drawn) [Example 1,Li^+ salt]
Asked: Sort the entries above by pIC50, smallest first. Give me the labels in the order the question wants.
Given back: 1, 3, 2

====

- System Tested: LTA4 hydrolase (Rattus norvegicus, UniProt P30349)
- Construct: the supernatant containing cytosolic LTA4 hydrolase was obtained; from tissue; host or cells: peritoneal neutrophils (90-95% pure, oyster-glycogen elicited) of male Sprague Dawley rats; 100,000 x G supernatant of the homogenate
- Sequence (P30349 1-611): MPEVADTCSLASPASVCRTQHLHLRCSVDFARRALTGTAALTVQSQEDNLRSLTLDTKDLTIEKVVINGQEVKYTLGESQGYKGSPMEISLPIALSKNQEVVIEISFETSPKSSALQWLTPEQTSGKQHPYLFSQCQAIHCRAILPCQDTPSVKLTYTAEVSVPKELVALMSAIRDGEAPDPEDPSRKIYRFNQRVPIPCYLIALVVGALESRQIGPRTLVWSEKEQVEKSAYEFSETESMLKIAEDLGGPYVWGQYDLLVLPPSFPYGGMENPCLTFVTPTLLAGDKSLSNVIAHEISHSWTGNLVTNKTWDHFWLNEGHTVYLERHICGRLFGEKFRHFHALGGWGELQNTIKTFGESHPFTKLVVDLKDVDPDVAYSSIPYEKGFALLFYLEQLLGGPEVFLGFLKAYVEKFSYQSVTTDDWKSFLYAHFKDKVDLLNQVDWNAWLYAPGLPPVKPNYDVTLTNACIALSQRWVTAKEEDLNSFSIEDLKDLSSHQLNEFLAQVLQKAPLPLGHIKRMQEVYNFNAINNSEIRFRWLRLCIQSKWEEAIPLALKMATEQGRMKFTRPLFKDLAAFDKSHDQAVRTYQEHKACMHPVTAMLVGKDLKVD
- Method Description: Leukotriene-A4 (LTA4) Hydrolase Enzyme Assay (inhibition of LTB4 production by rat neutrophil cytosol, RIA)
- Format: biochemical, rat (male Sprague Dawley)
- Conditions Used: 10^-4 M
Structures can show the parent of a compound that is named as a salt.
Observation Type: inhibition at 100 µM (%)

Please review the entries below; each comes with its answer.
Asked: Quickly give me recorded inhibition at 100 µM for CCCCCCCCCCCCCC[C@@H]1O[C@H]1c1cccc(C(=O)OC)c1 (relative stereo) [Example 22, Methyl 3-(3-tetradecyloxiranyl)benzoate]
Given back: 20

Asked: Complete the entry with inhibition at 100 µM for CCCCCCCCCCCC/C=C/C1OC1c1cccc(C(=O)O)c1 (stereo not shown) [Example 1,Li^+ salt]
Given back: 40

[1] CCCCCCCC/C=C/C=C/C=C/C1OC1c1cccc(C(=O)O)c1 (stereo not shown) [Example 7,Li^+ salt]
[2] CCCCCCCCCC/C=C/C=C/C1OC1c1cccc(C(=O)O)c1 (stereo not shown) [Example 4,Li^+ salt]
Asked: Lowest inhibition at 100 µM? choose 1 or 2 Identify your selection by its label.
Given back: 2
(2: 58%, 1: 85%)

====

- System Tested: LTA4 hydrolase (Rattus norvegicus, UniProt P30349)
- Construct: the supernatant containing cytosolic LTA4 hydrolase was obtained; 100,000 x G supernatant of the homogenate
- Method Description: Leukotriene-A4 (LTA4) Hydrolase Enzyme Assay (inhibition of LTB4 production by rat neutrophil cytosol, RIA)
- Conditions Used: rat neutrophil cytosolic LTA4 hydrolase
- Protocol: Leukotriene --A4 Hydrolase Inhibition Materials Leukotriene-A4 -methyl ester and leukotriene-A3 were purchased from Biomol (Cambridge). Trans-stilbene oxide, EDTA, phenylmethyl sulphonyl fluoride were purchased from Sigma (St. Louis). Eagles Basil Media was purchased from GIBCO (Grand Island). […] The cell suspensions, which were 90-95% neutrophils as determined by cytometry, were homogenized by a polytron at 4° C. with three 30 second bursts with cooling on ice in between. […]
pIC50: −log10 of the molar value. Structures can show the parent of a compound that is named as a salt.
Observation Type: pIC50

[1] CCCCCCCCCC/C=C/C=C/C1OC1c1cccc(C(=O)O)c1 (centres unmarked) [Example 4,Li^+ salt]
[2] CCCCCCCC/C=C/C=C/C=C/C1OC1c1cccc(C(=O)O)c1 (centres unmarked) [Example 7,Li^+ salt]
Asked: Sort 1 and 2 by pIC50 descending and give the first. Your answer should be the label of the entry you select.
Given back: 2
(2: 5.70, 1: 4.10)

====

Parameter inhibition at 100 µM: see the listing below.
- Tested on: A23187-Induced LTB4 Production in Human Promyelocytic Leukemia HL-60 Cells
- Method Description: A23187-Induced LTB4 Production in Human Promyelocytic Leukemia HL-60 Cells (HL-60 Cell Assay)
- Format: cell-based
- Conditions Used: Homo sapiens, HL-60; 10^-4 M
Structures can show the parent of a compound that is named as a salt.
// note: answer is a bare numeric in %

Asked: Consider the molecule CCCCCCCCCCCCCC[C@@H]1O[C@H]1c1cccc(C(=O)OC)c1 (relative stereo) [Example 22, Methyl 3-(3-tetradecyloxiranyl)benzoate] and give its recorded inhibition at 100 µM.
Given back: 79

Asked: Find the measured inhibition at 100 µM of CCCCCCCCCCCC/C=C/C1OC1c1cccc(C(=O)O)c1 (stereo not shown) [Example 1,Li^+ salt] and report it.
Given back: 94

Asked: Please give measured inhibition at 100 µM of the following entry: CCCCCCCCCC/C=C/C=C/C1OC1c1cccc(C(=O)OC)c1 (stereo not shown)
Given back: 29

Read the next record carefully.
Asked: Find the measured inhibition at 100 µM of CCCCCCCCCC/C=C/C=C/C1OC1c1cccc(C(=O)O)c1 (stereo not shown) [Example 4,Li^+ salt] and report it.
Given back: 88
